Provenance of the data: patent US9682955B2

# TARGET ENTITY: Human CB1R (Cannabanoid receptor 1) (Homo sapiens (Human), UniProt P21554)
# Sequence (P21554 whole entry): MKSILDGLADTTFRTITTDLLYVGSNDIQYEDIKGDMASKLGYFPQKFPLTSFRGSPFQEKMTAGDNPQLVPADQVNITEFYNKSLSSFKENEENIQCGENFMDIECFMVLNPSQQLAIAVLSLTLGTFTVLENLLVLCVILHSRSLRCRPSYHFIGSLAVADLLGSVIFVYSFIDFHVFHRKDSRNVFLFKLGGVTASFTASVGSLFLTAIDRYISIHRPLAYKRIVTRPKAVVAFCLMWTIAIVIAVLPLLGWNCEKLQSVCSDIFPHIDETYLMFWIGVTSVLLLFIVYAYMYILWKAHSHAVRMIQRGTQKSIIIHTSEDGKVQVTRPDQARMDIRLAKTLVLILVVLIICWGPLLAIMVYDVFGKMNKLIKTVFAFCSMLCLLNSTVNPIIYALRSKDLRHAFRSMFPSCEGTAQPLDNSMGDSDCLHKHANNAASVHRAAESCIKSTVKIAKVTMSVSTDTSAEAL
# METHOD NOTES: CB-1 in vitro cAMP assay (HTRF)
# MEASUREMENT SETUP: mean where tested more than once
READOUT NAME: pEC50
Kindly note that pEC50 refers to -log10 of the concentration in mol/L and answer with the value alone.

Record excerpt, results attached:
Ask: Query: pEC50; subject: `FC(F)(F)c1ccc(Nc2ncnc3ccc(C(c4ccc(Cl)cc4)c4ccc(Cl)cc4)cc23)cc1`
Result: 7.04

Ask: Query: pEC50; subject: `NC(=O)Cc1ccc(N2CCC(Nc3ncnc4ccc(C(c5ccc(Cl)cc5)c5ccc(Cl)cc5)cc34)CC2)cc1`
Result: 7.09

Now examine the next entry.
Ask: Query: pEC50; subject: `O=C(O)COc1ccc(S(=O)(=O)N2CCC(Nc3ncnc4ccc(C(c5ccc(Cl)cc5)c5ccc(Cl)cc5)cc34)CC2)cc1`
Result: 7.01
